Kindly state % inhibition, FRET short substrate assay (negative = activation) for each of the entries shown.
- TARGET UNDER TEST: human BACE1 ECD (human, UniProt P56817); further: test concentration or dose not given here
- Sequence (P56817 22-457): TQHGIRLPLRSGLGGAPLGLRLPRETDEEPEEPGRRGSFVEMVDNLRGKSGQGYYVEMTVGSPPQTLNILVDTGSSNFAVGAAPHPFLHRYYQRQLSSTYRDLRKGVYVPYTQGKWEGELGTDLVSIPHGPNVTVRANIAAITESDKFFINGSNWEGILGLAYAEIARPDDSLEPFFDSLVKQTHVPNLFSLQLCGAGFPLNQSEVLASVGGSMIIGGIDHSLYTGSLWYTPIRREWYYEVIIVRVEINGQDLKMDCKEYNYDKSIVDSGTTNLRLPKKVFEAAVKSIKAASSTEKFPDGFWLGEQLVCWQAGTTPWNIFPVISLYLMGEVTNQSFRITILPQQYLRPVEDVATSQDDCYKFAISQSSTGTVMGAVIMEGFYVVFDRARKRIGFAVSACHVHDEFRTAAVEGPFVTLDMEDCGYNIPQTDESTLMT
- ASSAY COMMENT: cell-based or functional assay
Answers are plain numbers, in %.

{"columns": ["BINDER", "REPORTED MEASUREMENT"],
 "data": [
  ["5884 (antibody, V domains shown) VH: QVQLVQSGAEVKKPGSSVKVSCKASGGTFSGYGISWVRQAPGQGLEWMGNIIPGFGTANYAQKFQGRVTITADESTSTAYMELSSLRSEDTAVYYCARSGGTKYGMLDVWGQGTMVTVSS VL: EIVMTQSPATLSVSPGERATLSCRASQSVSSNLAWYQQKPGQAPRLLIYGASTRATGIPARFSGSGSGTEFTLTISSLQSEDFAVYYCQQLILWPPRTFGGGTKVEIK", -102]
]}

Task item: Query: % inhibition, FRET short substrate assay (negative = activation); subject: 5571 (antibody, V domains shown) VH: QVQLVQSGAEVKKPGSSVKVSCKASGGTFSSYAISWVRQAPGQGLEWMGNIIPIFGTANYAQKFQGRVTITADESTSTAYMELSSLRSEDTAVYYCARSGGTKYGMLDVWGQGTVVTVSS VL: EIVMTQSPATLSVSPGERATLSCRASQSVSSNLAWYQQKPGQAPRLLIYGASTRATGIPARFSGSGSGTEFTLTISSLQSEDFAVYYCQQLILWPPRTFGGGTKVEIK
Reply: -89
